# study.target: human Chk1 (GST-Chk1) (Homo sapiens)
# Construct: made in house; host or cells: insect cells (baculovirus, Bac-to-Bac)
# Sequence (O14757 whole entry): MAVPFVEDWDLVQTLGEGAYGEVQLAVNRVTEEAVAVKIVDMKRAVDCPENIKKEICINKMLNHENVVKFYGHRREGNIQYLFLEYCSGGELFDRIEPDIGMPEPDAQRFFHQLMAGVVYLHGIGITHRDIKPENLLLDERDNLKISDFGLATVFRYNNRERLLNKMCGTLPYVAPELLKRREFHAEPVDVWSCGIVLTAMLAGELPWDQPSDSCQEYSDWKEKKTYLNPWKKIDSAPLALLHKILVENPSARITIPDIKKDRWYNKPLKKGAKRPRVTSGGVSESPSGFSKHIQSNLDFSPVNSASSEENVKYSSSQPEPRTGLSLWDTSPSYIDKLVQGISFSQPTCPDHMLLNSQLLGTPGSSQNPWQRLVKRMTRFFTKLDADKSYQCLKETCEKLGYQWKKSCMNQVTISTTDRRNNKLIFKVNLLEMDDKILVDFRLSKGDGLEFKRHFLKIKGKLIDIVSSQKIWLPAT
# test.method.notes: Chk1 FlashPlate kinase assay
# Type: biochemical
# condition.parameters: 8.7 nM GST-Chk1, 1 uM ATP, 33P incorporation into peptide substrate
pIC50: −log10 of the molar value.
observed.property: pIC50

{"compound": "CCCCNc1ccc2c(c1)c1n[nH]c(C)c1c(=O)n2CCCN", "reported.result": "> 6.00"}
{"compound": "Cc1[nH]nc2c1c(=O)n(CCCNC(=O)c1ccc(OC(F)(F)F)cc1)c1ccccc21", "reported.result": "> 6.00"}
{"compound": "Cc1n[nH]c2c1c(=O)n(CC1CCCNC1)c1ccc(Br)cc21 (centres unmarked)", "reported.result": "> 6.00"}
{"compound": "Cc1[nH]nc2c1c(=O)n(CCCNC(=O)CCCN)c1ccccc21", "reported.result": "> 6.00"}
{"compound": "Cc1[nH]nc2c1c(=O)n(CCCNC(=O)C(Cc1ccc(OC(C)(C)C)cc1)NC(=O)OC(C)(C)C)c1ccccc21 (centres unmarked)", "reported.result": "4.70 to 6.00"}
{"compound": "COC(=O)CCCn1c(=O)c2c(C)n[nH]c2c2cc(Br)ccc21", "reported.result": "> 6.00"}
{"compound": "Cc1n[nH]c2c1c(=O)n(C[C@@H](C)CNC(=O)OC(C)(C)C)c1ccc(Br)cc21", "reported.result": "> 6.00"}
{"compound": "Cc1n[nH]c2c1c(=O)n(CCCO)c1ccccc21", "reported.result": "> 6.00"}
{"compound": "COc1ccc2c(c1)c1n[nH]c(C)c1c(=O)n2CCCN", "reported.result": "> 6.00"}
{"compound": "Cc1[nH]nc2c1c(=O)[nH]c1c(OCCCN)cccc12", "reported.result": "4.70 to 6.00"}
{"compound": "Cc1[nH]nc2c1c(=O)n(CCCNC(=O)C(N)Cc1ccc(O)cc1)c1ccccc21 (centres unmarked)", "reported.result": "> 6.00"}
{"compound": "Cc1ccc2c(c1)c1n[nH]c(C)c1c(=O)n2CCCN", "reported.result": "> 6.00"}
{"compound": "Cc1[nH]nc2c1c(=O)n(CCCNC(=O)c1cccc(Cl)c1)c1ccccc21", "reported.result": "> 6.00"}
{"compound": "Cc1[nH]nc2c1c(=O)n(CCCNC(=O)C(Cc1ccc(F)cc1)NC(=O)OC(C)(C)C)c1ccccc21 (centres unmarked)", "reported.result": "4.70 to 6.00"}
{"compound": "Cc1[nH]nc2c1c(=O)n(CCNS(=O)(=O)c1ccccc1)c1ccccc21", "reported.result": "4.70 to 6.00"}
{"compound": "Cc1n[nH]c2c1c(=O)n(CCCC(=O)N1CCN(C(=O)OC(C)(C)C)CC1)c1ccc(Br)cc21", "reported.result": "> 6.00"}
{"compound": "Cc1n[nH]c2c1c(=O)n(CCCC(=O)NCc1ccc(Cl)cc1)c1ccc(Br)cc21", "reported.result": "> 6.00"}
{"compound": "Cc1[nH]nc2c1c(=O)n(CCCNC(=O)C(Cc1ccc(Cl)cc1)NC(=O)OC(C)(C)C)c1ccccc21 (centres unmarked)", "reported.result": "< 4.70"}
{"compound": "Cc1n[nH]c2c1c(=O)n(CCCCNC(=O)Nc1ccccc1)c1ccc(Br)cc21", "reported.result": "> 6.00"}
{"compound": "Cc1n[nH]c2c1c(=O)n(CCCNC(=O)OCc1ccccc1)c1ccc(Br)cc21", "reported.result": "> 6.00"}
{"compound": "Cc1[nH]nc2c1c(=O)n(CCCNC(=O)CC(C)C)c1ccccc21", "reported.result": "> 6.00"}
{"compound": "Cc1n[nH]c2c1c(=O)n(CCCNC(=O)OCc1ccccc1)c1ccccc21", "reported.result": "> 6.00"}
{"compound": "Cc1[nH]nc2c1c(=O)n(CCCNC(=O)OCc1ccccc1Cl)c1ccccc21", "reported.result": "> 6.00"}
{"compound": "Cc1[nH]nc2c1c(=O)n(CCCNC(=O)CCNC(=O)OC(C)(C)C)c1ccccc21", "reported.result": "4.70 to 6.00"}
{"compound": "Cc1[nH]nc2c1c(=O)n(CCCNC(=O)OCc1ccccc1Br)c1ccccc21", "reported.result": "> 6.00"}
{"compound": "COc1ccc(Cl)cc1NC(=O)NCCn1c(=O)c2c(C)n[nH]c2c2ccccc21", "reported.result": "4.70 to 6.00"}
{"compound": "COc1ccc2c(c1)c1n[nH]c(C)c1c(=O)n2CCCNC(=O)OC(C)(C)C", "reported.result": "> 6.00"}
{"compound": "Cc1[nH]nc2c1c(=O)n(CCCNC(=O)CCCc1ccccc1)c1ccccc21", "reported.result": "> 6.00"}
{"compound": "Cc1[nH]nc2c1c(=O)n(CCCNC(=O)[C@@H](N)Cc1ccc(F)cc1)c1ccccc21", "reported.result": "> 6.00"}
{"compound": "Cc1[nH]nc2c1c(=O)n(CCCN(C)C)c1ccc(Cl)cc21", "reported.result": "> 6.00"}
{"compound": "Cc1n[nH]c2c1c(=O)n(CCN)c1ccccc21", "reported.result": "> 6.00"}
{"compound": "Cc1[nH]nc2c1c(=O)n(CCCNC(=O)c1ccc(C(C)(C)C)cc1)c1ccccc21", "reported.result": "> 6.00"}
{"compound": "Cc1n[nH]c2c1c(=O)n(CC(C)CNC(=O)OC(C)(C)C)c1ccc(Br)cc21 (centres unmarked)", "reported.result": "> 6.00"}
{"compound": "Cc1n[nH]c2c1c(=O)n(CC(C)CN)c1ccc(Br)cc21 (centres unmarked)", "reported.result": "> 6.00"}
{"compound": "Cc1[nH]nc2c1c(=O)n(CCCN(C)C)c1ccc(Br)cc21", "reported.result": "> 6.00"}

Origin of values: patent US20050245563A1
